target: CYP3A4 (Homo sapiens, UniProt P08684); assay: Inhibition of BFC O-debenzylation activity of CYP3A4 in a reconstituted system with rat cytochrome P450 reductase; conditions: IC50 on the BFC debenzylation activity of CYP3A4, one range given for pyridine, aminoethylpyridine and 5 together
Sequence (P08684 with tags, fused parts or gaps): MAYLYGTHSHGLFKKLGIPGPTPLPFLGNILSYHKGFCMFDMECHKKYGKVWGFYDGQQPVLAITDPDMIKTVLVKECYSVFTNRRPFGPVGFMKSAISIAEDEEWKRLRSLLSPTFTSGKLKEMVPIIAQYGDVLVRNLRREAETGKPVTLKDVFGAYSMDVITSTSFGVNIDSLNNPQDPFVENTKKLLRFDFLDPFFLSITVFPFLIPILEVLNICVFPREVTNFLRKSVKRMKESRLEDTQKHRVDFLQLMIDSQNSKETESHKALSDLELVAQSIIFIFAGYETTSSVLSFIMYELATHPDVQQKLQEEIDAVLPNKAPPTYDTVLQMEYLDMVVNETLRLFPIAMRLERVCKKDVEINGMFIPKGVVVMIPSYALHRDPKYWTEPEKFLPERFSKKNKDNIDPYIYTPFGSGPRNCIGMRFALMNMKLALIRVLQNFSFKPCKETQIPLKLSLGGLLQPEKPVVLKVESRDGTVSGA
pIC50: −log10 of the molar value.
readoutName: pIC50

[[record]]
compound = "c1ccncc1 [pyridine, reference compound]"
readoutname = "pIC50"
reported = "2.40 to 3.00"


====

molecular target: CYP3A4 (Homo sapiens, UniProt P08684); assay: 442 nm peak in the absorbance spectrum of ligand-bound ferrous CYP3A4
readoutName: 442 nm absorption of the ferrous ligand-bound form of CYP3A4

[[record]]
compound = "CC(C)(C)OC(=O)N[C@H](CSCCC(=O)NCc1cccnc1)Cc1ccccc1 [Compound 15a]"
reported = "pronounced"

[[record]]
compound = "c1ccncc1 [pyridine, reference compound]"
reported = "undetectable"

[[record]]
compound = "CC(C)(C)OC(=O)NCCCCCC(=O)NCc1cccnc1 [Compound 4]"
reported = "considerably smaller"

[[record]]
compound = "CC(C)(C)OC(=O)N[C@H](CSCCC(=O)NCc1cccnc1)CC1CCCCC1 [Compound 11]"
reported = "considerably smaller"

[[record]]
compound = "CC(C)(C)OC(=O)N[C@H](CSCCC(=O)NCc1cccnc1)Cc1c[nH]c2ccccc12 [Compound 15b]"
reported = "pronounced"

[[record]]
compound = "NCCc1ccccn1 [aminoethylpyridine, reference compound]"
reported = "undetectable"


====

target: CYP3A4 (Homo sapiens, UniProt P08684); experiment: Inhibition of BFC O-debenzylation activity of CYP3A4 in a reconstituted system with rat cytochrome P450 reductase
pIC50: −log10 of the molar value.
readoutName: pIC50

[[record]]
structurenotation = "CC(C)(C)OC(=O)N[C@H](CN[C@@H](Cc1ccccc1)C(=O)NCCc1cccnc1)Cc1ccccc1"
readoutname = "pIC50"
reported = 6.41


====

target: CYP3A4 (Homo sapiens, UniProt P08684); experiment: Thermal denaturation (ligand-dependent changes in CYP3A4 melting temperature); type: binding; parameters: 4-histidine tag (C); made in house; host or cells: E. coli
Reported values of ΔTm (ligand-dependent changes in the melting temperature of CYP3A4) for individual entries
readoutName: ΔTm (ligand-dependent changes in the melting temperature of CYP3A4) (°C)

[[record]]
compound = "CC(C)(C)OC(=O)N[C@H](CSCCC(=O)NCc1cccnc1)CC1CCCCC1"
systemundertest = "CYP3A4 (Homo sapiens, UniProt P08684)"
reported = "−2"

[[record]]
compound = "c1ccncc1 [pyridine, reference compound]"
systemundertest = "CYP3A4 (Homo sapiens, UniProt P08684)"
reported = 0

[[record]]
compound = "CC(C)(C)OC(=O)NCCCCCC(=O)NCc1cccnc1"
systemundertest = "CYP3A4 (Homo sapiens, UniProt P08684)"
reported = "−0.2"

[[record]]
compound = "NCCc1ccccn1 [aminoethylpyridine, reference compound]"
systemundertest = "CYP3A4 (Homo sapiens, UniProt P08684)"
reported = "−0.1"

[[record]]
compound = "CC(C)(C)OC(=O)N[C@H](CSCCC(=O)NCc1cccnc1)Cc1c[nH]c2ccccc12 [Compound 15b]"
systemundertest = "CYP3A4 (Homo sapiens, UniProt P08684)"
reported = 0.2

[[record]]
compound = "CC(C)(C)OC(=O)N[C@H](CSCCC(=O)NCc1cccnc1)Cc1ccccc1 [Compound 15a]"
systemundertest = "CYP3A4 (Homo sapiens, UniProt P08684)"
reported = "−1"

[[record]]
compound = "NCCCCCC(=O)NCc1cccnc1"
systemundertest = "CYP3A4 (Homo sapiens, UniProt P08684)"
reported = "−0.2"


====

target: CYP3A4 (Homo sapiens, UniProt P08684); assay: Spectral binding titrations (equilibrium titration of CYP3A4, spectral dissociation constant); design: 4-histidine tag (C); made in house; host or cells: E. coli; conditions: calculated from plots of absorbance change versus inhibitor concentration (FIG. 37); read-out: Kd (binding affinity to CYP3A4)
readoutName: Kd (nM)

[[record]]
structurenotation = "CC(C)(C)OC(=O)N[C@H](CN[C@@H](Cc1ccccc1)C(=O)NCCc1cccnc1)Cc1ccccc1"
reported = 130


====

molecular target: UniProt P08684; experiment: Inhibition of BFC O-debenzylation activity of CYP3A4 in a reconstituted system with rat cytochrome P450 reductase; conditions: read-out: IC50 (concentration required for half-maximal inactivation of recombinant CYP3A4); BFC 50 μM, 100 μM NADPH, room temperature, pH 7.4
readoutName: IC50 (µM)

[[record]]
compound = "NCCCCCC(=O)NCc1cccnc1 [Compound 5]"
valueunit = "µM"
reported = 1000

[[record]]
compound = "CC(C)(C)OC(=O)NCCCCCC(=O)NCc1cccnc1 [Compound 4]"
valueunit = "µM"
reported = 75

[[record]]
compound = "CC(C)(C)OC(=O)N[C@H](CSCCC(=O)NCc1cccnc1)CC1CCCCC1 [Compound 11]"
valueunit = "µM"
reported = 30

[[record]]
compound = "NCCc1ccccn1 [aminoethylpyridine, reference compound]"
valueunit = "µM"
reported = 5000


====

biological target: CYP3A4 (Homo sapiens, UniProt P08684)
readoutName: IC50

[[record]]
structurenotation = "NCCCCCC(=O)NCc1cccnc1"
reported = "1 to 4 mM"


====

target: CYP3A4 (Homo sapiens); assay: Spectral binding titrations (equilibrium titration of CYP3A4, spectral dissociation constant); design: 4-histidine tag (C); made in house; host or cells: E. coli; settings: values derived from the two site saturation fit to a titration curve; two binding sites; read-out: Ks (spectral dissociation constant), two site saturation fit
readoutName: Kd (µM)

[[record]]
compound = "NCCCCCC(=O)NCc1cccnc1 [Compound 5]"
readoutname = "Kd"
reported = 10


====

Reported values of kfast (rate constant for the fast phase of the binding reaction) for individual entries
Target: UniProt P08684
Experiment: Kinetics of ligand binding to CYP3A4 (stopped flow)
Details: saturating ligand concentrations; room temperature, 2 μM CYP3A4
Method: Kinetics of ligand binding to CYP3A4 was monitored at room temperature in 50 mM phosphate, pH 7.4, in a SX.18MV stopped flow apparatus (Applied Photophysics, UK) after mixing 2 μM CYP3A4 with various concentrations of ligands. […] Kinetic data were analyzed using the program IgorPro (WaveMetrics, Inc).
readoutName: kfast (rate constant for the fast phase of the binding reaction) (s⁻¹)

[[record]]
compound = "CC(C)(C)OC(=O)N[C@H](CSCCC(=O)NCc1cccnc1)Cc1c[nH]c2ccccc12 [Compound 15b]"
valueunit = "s⁻¹"
reported = 8.0

[[record]]
compound = "CC(C)(C)OC(=O)N[C@H](CSCCC(=O)NCc1cccnc1)CC1CCCCC1"
valueunit = "s⁻¹"
reported = 4.0

[[record]]
compound = "c1ccncc1 [pyridine, reference compound]"
valueunit = "s⁻¹"
reported = 0.5

[[record]]
compound = "NCCc1ccccn1 [aminoethylpyridine, reference compound]"
valueunit = "s⁻¹"
reported = 0.6


====

molecular target: CYP3A4 (Homo sapiens); test: Spectral binding titrations (equilibrium titration of CYP3A4, spectral dissociation constant); parameters: 4-histidine tag (C); made in house; host or cells: E. coli; settings: 50 mM phosphate pH 7.4, 20% glycerol, 1 mM dithiothreitol; single site; read-out: Ks (spectral dissociation constant)
pKd: −log10 of the molar value.
Kind request: treat 4 as inclusive, so pKd at 4 or higher is satisfied, anything lower is not satisfied.

[[record]]
molecule = "CC(C)(C)OC(=O)N[C@H](CSCCC(=O)NCc1cccnc1)Cc1c[nH]c2ccccc12 [Compound 15b]"
systemundertest = "CYP3A4 (Homo sapiens)"
classification = "satisfied"

[[record]]
molecule = "CC(C)(C)OC(=O)N[C@H](CSCCC(=O)NCc1cccnc1)Cc1ccccc1 [Compound 15a]"
systemundertest = "CYP3A4 (Homo sapiens)"
classification = "satisfied"

[[record]]
molecule = "NCCc1ccccn1 [aminoethylpyridine, reference compound]"
systemundertest = "CYP3A4 (Homo sapiens)"
classification = "not satisfied"

[[record]]
molecule = "CC(C)(C)OC(=O)N[C@H](CSCCC(=O)NCc1cccnc1)CC1CCCCC1"
systemundertest = "CYP3A4 (Homo sapiens)"
classification = "satisfied"

[[record]]
molecule = "c1ccncc1 [pyridine, reference compound]"
systemundertest = "CYP3A4 (Homo sapiens)"
classification = "not satisfied"

